Listed next: entries and their corresponding viability at 28.5 h, 10 µM.
- Run description: in vitro
- Condition: human, hela cells, % viability
Readout label: viability at 28.5 h, 10 µM

1. CC(C)(C)OC(=O)NCc1ccc(CNCc2ccccc2Br)cc1 | 96.6%
2. C1=C(CN2CCn3nc(CNc4cnccn4)cc3C2)CCCC1 | 86.1%
3. O=C1NC[C@@H](Cc2ccccc2)NC(=O)C2(C/C=C/COc3ccccc31)CCN(Cc1ncccc1F)CC2 | 111%
4. Cc1ccc(OCc2occc2C(=O)N2CCCn3cncc3C2)cc1 | 92.7%
5. COc1cc(NC(=O)N2CCN(CCc3ccccc3)CC2)cc(OC)c1OC | 100%

----------
- Run description: in vitro
- Condition: human, hela cells, % viability
Readout label: viability at 28.5 h, 10 µM

1. COC(=O)[C@H]1CN(C(=O)c2cccs2)C[C@@H]1c1ccccc1F | 87.4%
2. CCOC(=O)C1CN(C(=O)N(CCN)Cc2ccc(Cl)cc2)CC1c1ccccc1 (stereo not shown) [CBK001682C] | 97.8%
3. O=C1C2C(c3ccccc3Cl)OC3(C(=O)c4ccccc4C3=O)C2C(=O)N1c1ccc([N+](=O)[O-])cc1 (stereo not shown) | 101%
4. OC(CN1CCC(Oc2cccc(F)c2)CC1)c1cccs1 (stereo not shown) | 88.8%
5. O=C(O)c1cccc(-n2ncc(-c3ccccc3C(F)(F)F)n2)c1 | 98.1%
6. Cc1cc(C)cc(NC(=O)NCCc2cccs2)c1 | 93.2%
7. O=C(NCCNCc1ccccc1)c1ccccc1 | 119%
8. Cc1cc(C)[n+](-c2nccs2)c(C)c1 [CBK008782G] | 103%
9. Cc1ccc(S(=O)(=O)Nc2ccc(Nc3cc(-c4ccc(CNC(=O)OC(C)(C)C)cc4)ncn3)cc2)cc1 | 96.8%
10. CC(C)(C)OC(=O)NCCNC(=O)c1cccnc1NCc1ccc2c(c1)OCO2 | 104%
11. Nc1nc2c(cnn2[C@H]2C[C@@H](O)[C@@H](CO)O2)c(=O)[nH]1 | 101%
12. Fc1cnc(Nc2ccccc2)nc1N1CCOCC1 | 76.5%
13. O=C(Nc1ccc(Cl)cc1)Nc1cccc(C(=O)O)c1 | 98.7%
14. O=C(COc1ccc(S(=O)(=O)N2CCOCC2)cc1)N1CCc2ccccc2C1 | 92.1%
15. COc1cc(-c2cncc(N3CCC(C(=O)O)CC3)n2)cc(OC)c1OC | 100%
16. CCNC(=O)c1cncc(-c2[nH]nnc2-c2ccccc2)c1 | 96.9%
17. CC(C)NC(=O)Cn1ccc2ccnc(-c3cccs3)c21 | 91.3%
18. Oc1ccc(-c2n[nH]c(C(F)(F)F)c2Oc2ccc(F)cc2)c(O)c1 | 89.5%
19. C(=N\Nc1nc2ccccc2[nH]1)/c1cccnc1 | 115%
20. Cc1cccc(C)c1NC(=O)CN1CCCN(c2cc(OCCN3C(=O)CCC3=O)ncn2)CC1 [CBK083313T] | 97.9%
21. O=C1CC2(CCC3C(C(=O)N4CCCC4)C32)Oc2ccccc21 (stereo not shown) | 104%
22. CN(C)C(C)(C)COc1ncccc1OCCO | 112%
23. COc1ccc(C(=O)N2CC[C@@H]3NC(=O)[C@H]4C[C@H](NC(=O)C5CCC5)CN4C(=O)[C@H]32)cc1 | 111%
24. CCOC(=O)N1CCC(NS(=O)(=O)c2ccc(F)cc2)CC1 | 95.1%
25. Nc1nc(OCc2ccncc2)cnc1-c1ccc(OC(F)(F)F)cc1 | 99.8%
26. CCc1ccc(CNC(=O)Cn2nnc(-c3ccc(CN4CCC(C)CC4)nc3SC)n2)cc1 [CBK156205T] | 90.3%
27. Cn1cc(-c2ccc(OCC3CCN(C(=O)OC(C)(C)C)CC3)cn2)cn1 | 77.8%
28. CCOC(=O)N1CCN(C(C(=O)O)c2c[nH]c3cc(OCc4ccccc4)ccc23)CC1 (stereo not shown) | 97%
29. CC1CC(C)CN(CCCNC(=O)c2cc(-c3cccs3)no2)C1 (stereo not shown) | 93%
30. N#CCCN(C(=O)NC1CCc2ccccc21)C1CCCCC1 (stereo not shown) | 95.5%
31. CCCc1oc(C(=O)O)cc1CN(CC)CC [CBK267943C] | 92.1%
32. Cc1nc2cc(C(=O)N3CCC(c4ccncc4)CC3)ccc2s1 | 85.7%
33. Cc1nc(CN2CCN(c3cccc(C(F)(F)F)n3)CC2)cs1 | 93.9%
34. O=C(Cc1ccc(-c2ccccc2)cc1)N1CCC2(CC1)Nc1ccccc1S(=O)(=O)N2 | 79.2%
35. CC(C)(C)OC(=O)NC(C)(C)C(=O)N1CC(C(=O)O)C(c2cc3ccccc3o2)C1 (stereo not shown) | 88%
36. O=C(Nc1cccc(S(=O)(=O)N2CCOCC2)c1)c1cc(-c2cccnc2)nc2ccc(Cl)cc12 | 98%
37. CC1CC(NC(=S)NCc2csc3ccccc23)CC(C)(C)C1 (stereo not shown) | 90.9%

----------
- Run description: in vitro
- Condition: human, hela cells, % viability
Listed next: entries and their corresponding viability at 28.5 h, 10 µM.
Readout label: viability at 28.5 h, 10 µM (%)

1. COc1cc(CNn2c(C)nnc2S)cc(Br)c1OCC(=O)NC(C)(C)C | 112
2. Cc1c(Cl)cccc1S(=O)(=O)N1CCCN(c2nc3ccc(Cl)cc3s2)CC1 | 95.6
3. COc1ccc2[nH]c(C(=O)O)c(CCNC(C)=O)c2c1 [CBK260943N] | 113
4. CCc1nnc(NC(=O)CSc2nc3c([nH]2)c(=O)n(C)c(=O)n3C)s1 | 113
5. S=C(NCCc1ccc(Cl)cc1)NCc1ccco1 | 83.3

----------
Listed next: entries and their corresponding viability at 28.5 h, 10 µM.
- Run description: in vitro
- Condition: human, hela cells, % viability
Readout label: viability at 28.5 h, 10 µM (%)

1) Cn1c(N)nc2c(ncn2[C@H]2C[C@@H](O)[C@@H](CO)O2)c1=O | 105
2) CCCC(=O)NCCn1ncc(-c2ccncc2)c1C1CC1 | 83.6
3) Cn1cc(Cl)c(C2CCCCCN2C(=O)c2cc(C3CC3)on2)n1 (stereo not shown) | 109
4) Cc1cc(C(=O)N2CCc3c(sc4ncnc(N)c34)C2)on1 | 85.1
5) Cc1ccc(C(=O)N2CCN(S(=O)(=O)N3CCCCCC3)CC2)cc1 | 101
6) COc1cccc(C(=O)Nc2ccc(NC(=O)C3CC=CCC3C(=O)O)cc2)c1 (stereo not shown) | 107
7) CC1(C(C)(O)C(F)F)OC(NC2C3CC4CC(C3)CC2C4)=NC1=O (stereo not shown) | 103
8) N#Cc1nccnc1S(=O)(=O)CCO | 90.1
9) CSc1nsc(SCC(=O)Nc2ccc(OC(C)=O)cc2)n1 | 88.1
10) O=C(NCc1csc(-c2ccccc2)n1)C(F)(F)F | 102

----------
- Run description: in vitro
- Condition: human, hela cells, % viability
Listed next: entries and their corresponding viability at 28.5 h, 10 µM.
Readout label: viability at 28.5 h, 10 µM

1) Fc1ccc(-c2nccnc2NCc2ccncc2)cc1 [CBK088964] | 98.8%
2) COc1ccc(-c2nc3cc(NC(=O)COc4ccccc4[N+](=O)[O-])ccc3o2)cc1Cl [CBK263412] | 99.2%
3) Cc1ccc(C(=O)C2=C(O)C(=O)N(CCCN(C)C)C2c2ccccn2)o1 (stereo not shown) [CBK269575] | 89.1%
4) Cc1cc(C(=O)N2CCC3(CCN(Cc4ccccc4)C3)C2)n[nH]1 (stereo not shown) [CBK137092T] | 93.4%
5) O=C(Nc1ccc(Cc2ccc(O)c(NC(=O)c3ccccc3F)c2)cc1O)c1ccccc1F [CBK265766] | 85.4%
6) CCN1CCN(C(=O)c2c(-c3ccccc3)noc2C)CC1 [CBK200251] | 96.5%
7) O=S(=O)(Nc1ccccc1N1CCCCC1)c1ccc(Cl)cc1 [CBK077063] | 100%
8) COc1ccccc1Nc1nc(N)nc(CSc2nc3ccccc3s2)n1 [CBK266747] | 95.7%
9) COc1cccc(CN(C)C2CCN(C)CC2)c1OC [CBK261532] | 97.7%
10) COc1ccc(NC(=O)CC(C(=O)O)N2CCCCC2)cc1 (stereo not shown) [CBK267115] | 101%
11) COc1ccc(Cl)cc1N(CC(=O)Nc1ccccc1C(=O)O)S(C)(=O)=O [CBK264137] | 96.9%
12) CCc1nccn1CCC(=O)Nc1ccc2c(c1)nc(CC)n2CC [CBK281629] | 81.2%
13) Cc1ccnc(NCC2CCN(CC(=O)Nc3cc(C)no3)C2)c1 (stereo not shown) [CBK306121] | 91.3%
14) CCOC(=O)c1c(NC(=S)NC(=O)c2cccc(Cl)c2)sc2c1CCCC2 [CBK264045] | 88.2%
15) COCCn1c(CN2CCC(Cc3ccccc3)CC2)nc2c1c(=O)n(C)c(=O)n2C [CBK269378] | 99.1%
16) c1ccc2c(c1)OCC(c1nn3cnnc3s1)O2 (stereo not shown) [CBK269277] | 111%
17) CNC(=S)Nc1ncn(Cc2cccc(F)c2)n1 [CBK288368] | 106%
18) Cc1cc(NC(=O)C(C)(C)Oc2ccc(Cl)cc2)nc2c1c(=O)oc1ccccc12 [CBK291132] | 112%
19) COc1ccc(Cl)cc1NC(=O)CN(c1cc(C(F)(F)F)ccc1Cl)S(C)(=O)=O [CBK264724] | 82.5%
